These entries and their values trace back to the RNAGym collection of RNA variant scans (doi:10.1073/pnas.2313332121).

B1: TPR t1 (parent)
chain: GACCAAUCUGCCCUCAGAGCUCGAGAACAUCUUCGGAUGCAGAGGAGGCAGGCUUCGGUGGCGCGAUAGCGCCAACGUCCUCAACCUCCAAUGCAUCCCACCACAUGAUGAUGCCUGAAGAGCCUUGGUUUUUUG

Variants of: B1
Test: polymerase ribozyme fitness, log enrichment relative to wild type (log ratio); higher = more active; in vitro selection for triplet polymerase activity
polymerase ribozyme fitness (log ratio) values, listed per item
Enter the number alone.

Field: example entries. Status: answers known.
G63C A100U G110A C115G = -6.05
G61A C79U C104A C124A = 0.783

Now turn to the next variant.
Request the reported polymerase ribozyme fitness (log ratio) associated with A46U A74U A91G C123G
-3.09
